- Test system: OVCAR-3 ovarian
- experimental protocol: NCI tumour cell line growth inhibition, 48 h
parameter measured: TGI

The following compounds have reported results that may help.
- compound: "O=C(NC1(C(=O)O)CC1c1ccccc1)c1ccccc1 (centres undefined)"
  TGI: "> 100 µM"
- compound: "O=C1O[C@]2(c3ccccc3)C(c3ccccc3)=C[C@]2(C(=O)c2ccccc2)C1=O"
  TGI: "> 100 µM"
- compound: "CC(=N\\N=C\\c1ccccn1)/C(C)=N/N=C(C)/C(C)=N/N=C(C)/C(C)=N/N=C/c1ccccn1"
  TGI: "> 100 µM"
- compound: "COC(=O)C1=Cc2c(cc(OC)c(OC)c2OC)[C@H](c2ccc(OC)c(OC)c2OC)C1C(=O)OC (some centres undefined)"
  TGI: "> 100 µM"
- compound: "CCN1CCC(CC(=O)Nc2n[nH]c3nc(-c4cccs4)c(Br)cc23)CC1"
  TGI: "> 25 µM"
- compound: "COc1cc2ncn(-c3cc(OCc4ccccc4S(C)(=O)=O)c(C#N)s3)c2cc1OC"
  TGI: "> 25 µM"
- compound: "CC(C)(C)OC(=O)NCC(=O)N1CCCN(C(=O)CNC(=O)OC(C)(C)C)CC1"
  TGI: "> 100 µM"
- compound: "Nc1nc(SCCC/C=C/I)nc2c1ncn2C1OC(CO)C(O)C1O (centres undefined)"
  TGI: "> 202 µM"

# input Would you kindly share the measured TGI for c1ccc(C2=C(c3ccccc3)P(c3ccccc3)C2)cc1 (centres undefined) ?
# output > 100 µM

----------
- System: SN12C renal
- experimental protocol: NCI tumour cell line growth inhibition, 48 h
Entries and their GI50 values follow.

Worked cases, GI50 given:
- compound: "OCc1ccc(Oc2c3ccccc3nc3occc23)cc1"
  recorded value: "24.5 µM"
- compound: "Oc1cc(Cl)ccc1Cc1ccc(Cl)cc1O"
  recorded value: "7.92 µM"

Would you kindly look at the next entry?
# input Query (molecule): CCN1CCC(CC(=O)Nc2n[nH]c3nc(-c4cccs4)c(Br)cc23)CC1 ; field requested: GI50
# output 9.51 µM

----------
- Tested on: MDA-MB-231 breast
- experimental protocol: NCI tumour cell line growth inhibition, 48 h
Parameter: TGI. Scope: all listed entries.

As a guide, the following entries are already answered.
- compound: "CO/C(=N\\N=C\\c1cccc(C(F)(F)F)c1)c1ccncc1"
  TGI: "> 100 µM"
- compound: "O=C1/C(=C/c2ccco2)NC(=S)N1CN1CCOCC1"
  TGI: "> 100 µM"
- compound: "CCOC(=O)C(=Cn1c(=S)[nH]c2ccc([N+](=O)[O-])cc21)C(=O)OCC"
  TGI: "> 100 µM"

Could you now look at the following compound, please?
# input Report TGI for Cc1cn2c(=O)n(c1=O)Cc1ccccc1C2 please.
# output > 100 µM

----------
- Test system: HOP-18 NSCLC
- experimental protocol: NCI tumour cell line growth inhibition, 48 h
TGI: recorded values

- molecule: "CCOC(=O)[C@H]1Nc2ccc(Cl)cc2[C@H]2c3ccccc3O[C@H]21"
  tested target: "HOP-18 NSCLC"
  TGI: "> 100 µM"
- molecule: "O=C(O)CCCNS(=O)(=O)c1ccc2ccccc2c1"
  tested target: "HOP-18 NSCLC"
  TGI: "> 100 µM"
- molecule: "COc1ccc(C(O)/C(=C/n2ccnc2)c2ccccc2)cc1OC (centres undefined)"
  tested target: "HOP-18 NSCLC"
  TGI: "> 100 µM"

// next item, TGI requested
# input Which TGI value belongs to COc1cc2c(c(OC)c1OC)-c1ccc(SC)c(=O)cc1C(CC(=O)Oc1cccc(C#N)c1)C2 (centres undefined) ?
# output > 100 µM
